system: MCF7; assay: NCI tumour cell line growth inhibition, 48 h
Active and inactive are the calls of the source. No stated cut-off is given here; in the data, active = GI50 up to about 1.1 µM and inactive = higher.
Respond using exactly one of the listed classes: yes (1) = active, no (0) = inactive

Examples from the recorded data:
{"COMPOUND": "O=C(NC(=S)NC(=O)c1cc(O)c(O)c(O)c1)c1cc(O)c(O)c(O)c1", "CLASSIFICATION": "no (0)"}
{"COMPOUND": "O=C(/C=C/c1ccc(OCc2ccccc2)c(OCc2ccccc2)c1)OCc1ccccc1", "CLASSIFICATION": "no (0)"}
{"COMPOUND": "Nc1ccn(C2OC(CO)C(O)C2O)c(=O)n1 (stereo unspecified)", "CLASSIFICATION": "yes (1)"}
{"COMPOUND": "COc1cc(O)c2c(=O)c3cccc(C)c3[nH]c2c1", "CLASSIFICATION": "no (0)"}
{"COMPOUND": "S=C(Nc1ccccc1)N(Cc1ccccc1)c1ccccc1", "CLASSIFICATION": "no (0)"}

Called result for CCOC(=O)CSC1NC(C(=O)OC)CC1OC (stereo unspecified)
no (0)

Also check CCN(CC)C(=S)SC(=S)N(CC)CC
no (0)

Also check COc1cc2oc3cc(=O)cc4oc(-c5ccccc5)cc(c2c2c1CCC(c1ccccc1)O2)c43 (stereo unspecified)
no (0)

Also check N#CC(NC12CC3CC(CC(C3)C1)C2)c1ccc2c(c1)OCO2 (stereo unspecified)
no (0)

Also check COc1ccc(/C=C/C=C2C(=O)NC(=S)NC2=O)cc1
no (0)

Also check N#CC1(C#N)NC(c2ccccc2)C(C#N)(C#N)NC1c1ccccc1 (stereo unspecified)
no (0)
